Test: in vitro
Conditions: human, pH 7.4
Value Kind: Papp at 24 h, 100 % v/v (×10⁻⁶ cm/s)

>  <Chemical String>
CN1CCCC1=O

>  <Unit Spec>
×10⁻⁶ cm/s

>  <Measured>
1.75

$$$$

###

Assay: in vitro
Conditions: human, pH 7.4

>  <Compound>
CN1CCCC1=O [NMP, n-methyl pyrrolidone]

>  <Papp at 24 h, 50 % v/v (×10⁻⁶ cm/s)>
0.00861

$$$$

###

Assay: in vitro
Conditions: human, pH 7.4

>  <Compound>
CN1CCCC1=O [NMP, n-methyl pyrrolidone]

>  <Papp at 24 h, 20 % v/v>
0.0178 ×10⁻⁶ cm/s

$$$$

###

Assay: in vitro
Details: human, pH 7.4

>  <Chemical String>
CN1CCCC1=O

>  <Papp at 24 h, 80 % v/v>
1.74 ×10⁻⁶ cm/s

$$$$
